- SYSTEM: MMTV RT (Mouse mammary tumor virus)
- Sequence (P03365 861-1436): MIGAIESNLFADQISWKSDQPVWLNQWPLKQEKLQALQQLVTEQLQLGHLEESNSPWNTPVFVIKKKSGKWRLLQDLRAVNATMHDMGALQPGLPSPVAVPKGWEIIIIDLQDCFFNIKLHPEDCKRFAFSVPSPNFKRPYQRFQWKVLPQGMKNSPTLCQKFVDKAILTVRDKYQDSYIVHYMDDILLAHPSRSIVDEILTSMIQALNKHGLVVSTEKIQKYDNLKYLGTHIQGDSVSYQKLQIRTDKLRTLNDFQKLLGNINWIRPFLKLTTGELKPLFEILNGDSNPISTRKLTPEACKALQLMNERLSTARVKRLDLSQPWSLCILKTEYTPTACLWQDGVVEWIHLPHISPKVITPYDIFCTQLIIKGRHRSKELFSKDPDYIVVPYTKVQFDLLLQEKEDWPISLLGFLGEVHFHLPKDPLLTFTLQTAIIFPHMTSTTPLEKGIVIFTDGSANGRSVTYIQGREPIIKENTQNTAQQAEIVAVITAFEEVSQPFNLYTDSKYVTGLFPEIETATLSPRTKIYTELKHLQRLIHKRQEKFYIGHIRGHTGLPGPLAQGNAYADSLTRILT
- ASSAY_PROTOCOL: MMTV RT activity, filter-based [33P]dNTP incorporation assay on lysed MMTV particles
VALUE_TYPE: pIC50
Numbers only, as −log10 of the molar value.

As a guide, the following entries are already answered.
{"columns": ["COMPOUND", "pIC50"],
 "data": [
  ["Nc1nc(=O)n([C@@H]2CS[C@H](COP(=O)(O)OP(=O)(O)OP(=O)(O)O)O2)cc1F [FTCppp, reference compound]", 4.36],
  ["Cc1cn([C@H]2C[C@H](N=[N+]=[N-])[C@@H](COP(=O)(O)OP(=O)(O)OP(=O)(O)O)O2)c(=O)[nH]c1=O [AZTppp, reference compound]", 6.40]
]}

Now consider a different compound.
Reported pIC50 of Nc1ccn([C@@H]2CS[C@H](COP(=O)(O)OP(=O)(O)OP(=O)(O)O)O2)c(=O)n1 [3TCppp, reference compound] : 3.97
